biological target: D3R (Homo sapiens); assay: Radioligand binding, D3R
Sequence (P35462 whole entry): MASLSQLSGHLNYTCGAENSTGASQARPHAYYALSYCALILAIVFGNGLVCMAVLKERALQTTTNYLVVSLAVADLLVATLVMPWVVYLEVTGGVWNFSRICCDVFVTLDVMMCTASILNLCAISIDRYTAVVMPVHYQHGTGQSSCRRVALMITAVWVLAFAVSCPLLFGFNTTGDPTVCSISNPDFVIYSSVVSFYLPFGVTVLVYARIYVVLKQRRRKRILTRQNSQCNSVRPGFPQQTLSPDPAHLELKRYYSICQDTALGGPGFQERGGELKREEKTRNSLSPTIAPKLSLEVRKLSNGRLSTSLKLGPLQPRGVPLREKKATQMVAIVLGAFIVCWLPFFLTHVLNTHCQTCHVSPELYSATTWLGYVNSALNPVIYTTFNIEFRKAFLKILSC
# reported Ki; entries follow
outcome.measure: Ki (nM)

>>> value_observed("Cc1nc2cc(OCCCCN3CCN(c4cccc(Cl)c4Cl)CC3)ccc2s1 [Compound 1]")
13
>>> value_observed("CC(C)c1nc2cc(OCCCCN3CCN(c4cccc5c4OCCO5)CC3)ccc2s1 [Compound 53]")
31
>>> value_observed("Cc1ccc2cccc(N3CCN(CCCCOc4ccc5sc(C(C)C)nc5c4)CC3)c2n1 [Compound 49]")
64
>>> value_observed("CCc1nc2cc(OCCCCN3CCC(c4cccc(Cl)c4Cl)CC3)ccc2s1 [Compound 46]")
100
>>> value_observed("CNc1nc2cc(OCCCCN3CCC(c4cccc(Cl)c4Cl)CC3)ccc2s1 [Compound 54]")
69

====

target: 5-HT1B (Homo sapiens); test: Radioligand binding, 5-HT1B
Sequence (P28222 whole entry, species assumed): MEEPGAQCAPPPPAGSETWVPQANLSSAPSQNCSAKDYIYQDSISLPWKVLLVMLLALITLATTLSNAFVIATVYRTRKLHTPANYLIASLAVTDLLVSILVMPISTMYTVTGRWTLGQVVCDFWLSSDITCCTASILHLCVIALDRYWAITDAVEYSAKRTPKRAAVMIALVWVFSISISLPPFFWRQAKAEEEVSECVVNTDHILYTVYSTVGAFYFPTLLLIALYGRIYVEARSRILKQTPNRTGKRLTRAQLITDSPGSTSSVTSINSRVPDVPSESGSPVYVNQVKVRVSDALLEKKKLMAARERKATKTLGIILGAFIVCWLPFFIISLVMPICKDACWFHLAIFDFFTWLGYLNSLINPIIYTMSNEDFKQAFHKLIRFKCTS
outcome.measure: Ki

>>> value_observed("Cc1nc2cc(OCCCCN3CCN(c4cccc(Cl)c4Cl)CC3)ccc2s1")
"1700 nM"
>>> value_observed("CNc1nc2cc(OCCCCN3CCC(c4cccc(Cl)c4Cl)CC3)ccc2s1")
"2600 nM"
>>> value_observed("CC(C)c1nc2cc(OCCCCN3CCN(c4cccc5c4OCCO5)CC3)ccc2s1")
"420 nM"
>>> value_observed("Cc1ccc2cccc(N3CCN(CCCCOc4ccc5sc(C(C)C)nc5c4)CC3)c2n1")
"1600 nM"

====

molecular target: 5-HT1A (Homo sapiens, UniProt P08908); test: Radioligand binding, 5-HT1A; conditions: read-out: Binding affinity Ki (nM), 5-HT1A
Sequence (P08908 whole entry, species assumed): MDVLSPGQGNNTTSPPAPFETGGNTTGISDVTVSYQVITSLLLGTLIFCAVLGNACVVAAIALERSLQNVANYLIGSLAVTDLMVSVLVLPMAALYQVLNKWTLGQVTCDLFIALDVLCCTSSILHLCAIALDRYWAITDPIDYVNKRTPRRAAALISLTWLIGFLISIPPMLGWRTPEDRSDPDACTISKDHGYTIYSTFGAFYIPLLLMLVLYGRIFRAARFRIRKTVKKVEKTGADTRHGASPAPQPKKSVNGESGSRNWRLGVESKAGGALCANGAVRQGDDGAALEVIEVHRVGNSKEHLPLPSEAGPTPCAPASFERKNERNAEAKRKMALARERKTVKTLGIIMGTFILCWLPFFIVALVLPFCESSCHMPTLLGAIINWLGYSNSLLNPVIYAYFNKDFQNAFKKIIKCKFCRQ
outcome.measure: Ki

>>> value_observed("CNc1nc2cc(OCCCCN3CCN(c4cccc(Cl)c4Cl)CC3)ccc2s1 [Compound 24]")
"55 nM"

====

target: D1R (Homo sapiens); assay: Radioligand binding, D1R; conditions: read-out: Binding affinity Ki (nM), D1R; radioligand binding
Sequence (P21728 whole entry): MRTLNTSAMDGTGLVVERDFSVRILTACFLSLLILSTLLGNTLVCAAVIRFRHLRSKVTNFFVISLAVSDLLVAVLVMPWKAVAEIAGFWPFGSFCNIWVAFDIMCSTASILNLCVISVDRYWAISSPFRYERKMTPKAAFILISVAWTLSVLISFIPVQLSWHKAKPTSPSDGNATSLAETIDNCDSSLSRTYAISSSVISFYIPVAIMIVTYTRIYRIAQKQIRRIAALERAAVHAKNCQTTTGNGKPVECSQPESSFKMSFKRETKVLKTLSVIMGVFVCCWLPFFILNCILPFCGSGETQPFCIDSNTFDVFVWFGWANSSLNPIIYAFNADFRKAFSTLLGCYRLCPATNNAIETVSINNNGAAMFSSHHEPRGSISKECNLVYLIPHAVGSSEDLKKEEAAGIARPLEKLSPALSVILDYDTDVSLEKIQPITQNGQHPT
outcome.measure: Ki (nM)

>>> value_observed("CNc1nc2cc(OCCCCN3CCN(c4cccc(Cl)c4Cl)CC3)ccc2s1")
1100

====

# reported Emax; entries follow
molecular target: D2L receptors (Homo sapiens, UniProt P14416); experiment: D2R β-arrestin-2 recruitment Tango assay; format: cell-based; conditions: HTLA, read-out: β-arrestin Emax (%)
Sequence (P14416 whole entry): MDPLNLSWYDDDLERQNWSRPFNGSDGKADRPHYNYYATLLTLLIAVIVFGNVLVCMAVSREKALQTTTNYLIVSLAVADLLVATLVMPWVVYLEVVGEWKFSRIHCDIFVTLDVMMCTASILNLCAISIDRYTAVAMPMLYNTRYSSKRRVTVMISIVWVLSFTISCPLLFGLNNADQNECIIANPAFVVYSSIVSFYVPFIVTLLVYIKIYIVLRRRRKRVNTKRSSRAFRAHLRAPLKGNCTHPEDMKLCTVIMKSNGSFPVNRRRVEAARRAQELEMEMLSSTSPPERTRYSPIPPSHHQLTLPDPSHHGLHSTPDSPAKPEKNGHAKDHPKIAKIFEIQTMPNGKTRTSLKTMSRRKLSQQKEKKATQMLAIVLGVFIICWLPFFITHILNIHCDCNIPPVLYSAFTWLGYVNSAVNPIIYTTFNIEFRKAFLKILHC
outcome.measure: Emax (%)

>>> value_observed("FC(F)(F)c1nc2cc(OCCCCN3CCN(c4cccc(Cl)c4Cl)CC3)ccc2s1")
40
>>> value_observed("CCc1nc2cc(OCCCCN3CCN(c4cccc5c4OCCN5)CC3)ccc2s1")
33
>>> value_observed("Clc1nc2cc(OCCCCN3CCN(c4cccc(Cl)c4Cl)CC3)ccc2s1")
40

====

molecular target: D5R (Homo sapiens, UniProt P21918); test: Radioligand binding, D5R
Sequence (P21918 whole entry): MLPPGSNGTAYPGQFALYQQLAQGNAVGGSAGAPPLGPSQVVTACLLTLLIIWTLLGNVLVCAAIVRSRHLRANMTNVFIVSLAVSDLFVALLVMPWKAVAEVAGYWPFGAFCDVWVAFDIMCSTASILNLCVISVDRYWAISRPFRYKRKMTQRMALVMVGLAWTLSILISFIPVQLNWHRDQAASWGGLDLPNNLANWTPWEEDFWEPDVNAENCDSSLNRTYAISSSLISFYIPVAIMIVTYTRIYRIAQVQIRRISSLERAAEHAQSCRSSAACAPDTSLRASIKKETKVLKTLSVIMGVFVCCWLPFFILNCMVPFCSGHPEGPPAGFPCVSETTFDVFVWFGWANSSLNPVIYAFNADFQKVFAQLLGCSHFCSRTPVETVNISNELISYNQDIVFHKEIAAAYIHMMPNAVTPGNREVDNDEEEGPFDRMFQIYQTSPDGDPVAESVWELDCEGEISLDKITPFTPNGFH
pKi: −log10 of the molar value.
# reported pKi; entries follow
outcome.measure: pKi

>>> value_observed("Cc1ccc2cccc(N3CCN(CCCCOc4ccc5sc(C(C)C)nc5c4)CC3)c2n1 [Compound 49]")
5.82
>>> value_observed("CNc1nc2cc(OCCCCN3CCC(c4cccc(Cl)c4Cl)CC3)ccc2s1 [Compound 54]")
5.74
>>> value_observed("CC(C)c1nc2cc(OCCCCN3CCN(c4cccc5c4OCCO5)CC3)ccc2s1 [Compound 53]")
5.96

====

target: UniProt P25021
Sequence (P25021 whole entry): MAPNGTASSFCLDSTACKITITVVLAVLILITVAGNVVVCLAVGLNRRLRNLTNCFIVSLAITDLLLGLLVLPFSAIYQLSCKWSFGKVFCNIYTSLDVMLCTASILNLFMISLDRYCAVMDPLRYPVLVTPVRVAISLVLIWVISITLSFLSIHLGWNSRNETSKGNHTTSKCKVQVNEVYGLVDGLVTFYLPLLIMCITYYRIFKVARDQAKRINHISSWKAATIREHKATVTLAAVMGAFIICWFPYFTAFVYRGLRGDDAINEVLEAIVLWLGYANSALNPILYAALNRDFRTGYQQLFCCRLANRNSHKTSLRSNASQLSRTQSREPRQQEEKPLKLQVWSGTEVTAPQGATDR
outcome.measure: Ki (µM)

>>> value_observed("Cc1ccc2cccc(N3CCN(CCCCOc4ccc5sc(C(C)C)nc5c4)CC3)c2n1")
0.43

====

molecular target: D2L receptors (Homo sapiens, UniProt P14416); experiment: D2R β-arrestin-2 recruitment Tango assay; type: cell-based; details: HTLA, read-out: β-arrestin Emax (%)
outcome.measure: Emax

>>> value_observed("CCc1nc2cc(OCCCCN3CCN(c4cccc5ccc(C)nc45)CC3)ccc2s1")
"< 20%"
>>> value_observed("CC(C)c1nc2cc(OCCCCN3CCC(c4cccc(Cl)c4Cl)CC3)ccc2s1")
"< 20%"
>>> value_observed("CC(C)c1nc2cc(OCCCCN3CCN(c4cccc5c4OCCO5)CC3)ccc2s1")
"< 20%"
>>> value_observed("CCc1nc2cc(OCCCCN3CCN(c4cccc(Cl)c4Cl)CC3)ccc2s1")
"< 20%"
>>> value_observed("Cc1ccc2cccc(N3CCN(CCCCOc4ccc5sc(C)nc5c4)CC3)c2n1")
"< 20%"
>>> value_observed("CC(C)c1nc2cc(OCCCCN3CCN(c4cccc(Cl)c4Cl)CC3)ccc2s1")
"< 20%"
>>> value_observed("CCc1nc2cc(OCCCCN3CCC(c4cccc(Cl)c4Cl)CC3)ccc2s1")
"< 20%"
>>> value_observed("Cc1nc2cc(OCCCCN3CCN(c4cccc5c4OCCN5)CC3)ccc2s1")
"< 20%"
>>> value_observed("Cc1ccc2cccc(N3CCN(CCCCOc4ccc5sc(C(C)C)nc5c4)CC3)c2n1")
"< 20%"
